B1: CPEB3 Ribozyme (parent)
chain: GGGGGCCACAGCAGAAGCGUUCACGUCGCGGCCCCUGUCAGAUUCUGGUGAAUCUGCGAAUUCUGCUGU

variants of: B1; experiment: self-cleavage, relative activity (ratio to wild type); higher = more cleavage; co-transcriptional
The threshold is inclusive: self-cleavage of exactly 0.9 counts as y; values below receive n.

{"mutant": "C29U G47A", "assignedCategory": "n"}
{"mutant": "G65U G68C", "assignedCategory": "n"}
{"mutant": "U44G G50C", "assignedCategory": "y"}
{"mutant": "U46C U67A", "assignedCategory": "y"}
{"mutant": "U44C U64A", "assignedCategory": "n"}

Textbook exercise: given the entry A16G C18A , state whether its self-cleavage is greater than or equal to 0.9.
n

Lookup A23C G25A
n

Follow-up entry: G48A G50A
y

Please do the same for G47C G58C as well.
y

Also C22A C29G ?
n
